# Test system: stress-induced ulcer
# assay_method_text: Inhibitory action on stress-induced ulcer formation
# Format: in vivo, Sprague-Dawley strain male rats
# test_conditions: 100 mg/kg, oral; control 1.3
Exercise: for every item that follows, state its recorded Number of Ulcers/Stomach, 3 mm or larger.
# print the numeric value only

// query For stress-induced ulcer, give the measured Number of Ulcers/Stomach, 3 mm or larger of the entry `Cc1cccc(C(=O)Nc2ccc(C(=O)NCCCN(C)C)c(NC(=O)c3cccc(C)c3)c2)c1`
// result 0.6

// query For stress-induced ulcer, give the measured Number of Ulcers/Stomach, 3 mm or larger of the entry `Cc1cccc(C(=O)Nc2ccc(OCCCN(C)C)c(NC(=O)c3cccc(C)c3)c2)c1`
// result 0.8

// query For stress-induced ulcer, give the measured Number of Ulcers/Stomach, 3 mm or larger of the entry `Cc1ccccc1C(=O)Nc1ccc(C(=O)NCCCN(C)C)c(NC(=O)c2ccccc2C)c1`
// result 0.8

// query For stress-induced ulcer, give the measured Number of Ulcers/Stomach, 3 mm or larger of the entry `Cc1ccccc1C(=O)Nc1ccc(OCCCN(C)C)c(NC(=O)c2ccccc2C)c1`
// result 0

----------
# System: stress-induced ulcer
# assay_method_text: Inhibitory action on stress-induced ulcer formation
# Format: in vivo, Sprague-Dawley strain male rats
# test_conditions: 100 mg/kg, oral; control 45.6
reported_property: Number of Ulcers/Stomach, up to 3 mm

// query For stress-induced ulcer, give the measured Number of Ulcers/Stomach, up to 3 mm of the entry `Cc1ccccc1C(=O)Nc1ccc(OCCCN(C)C)c(NC(=O)c2ccccc2C)c1`
// result 3.8

// query For stress-induced ulcer, give the measured Number of Ulcers/Stomach, up to 3 mm of the entry `Cc1cccc(C(=O)Nc2ccc(C(=O)NCCCN(C)C)c(NC(=O)c3cccc(C)c3)c2)c1`
// result 17.6

// query For stress-induced ulcer, give the measured Number of Ulcers/Stomach, up to 3 mm of the entry `Cc1cccc(C(=O)Nc2ccc(OCCCN(C)C)c(NC(=O)c3cccc(C)c3)c2)c1`
// result 10.6

// query For stress-induced ulcer, give the measured Number of Ulcers/Stomach, up to 3 mm of the entry `Cc1ccccc1C(=O)Nc1ccc(C(=O)NCCCN(C)C)c(NC(=O)c2ccccc2C)c1`
// result 23.4

----------
# Tested on: stress-induced ulcer
# assay_method_text: Inhibitory action on stress-induced ulcer formation
# Assay type: in vivo, Sprague-Dawley strain male rats
# test_conditions: 100 mg/kg, oral; ulcer index
reported_property: Percent Inhibition (%)
Answer in %, number only, no unit symbol.

// query Tell us which Percent Inhibition value is on record for `Cc1ccccc1C(=O)Nc1ccc(C(=O)NCCCN(C)C)c(NC(=O)c2ccccc2C)c1`
// result 51

// query Tell us which Percent Inhibition value is on record for `Cc1cccc(C(=O)Nc2ccc(OCCCN(C)C)c(NC(=O)c3cccc(C)c3)c2)c1`
// result 67

// query Tell us which Percent Inhibition value is on record for `Cc1ccccc1C(=O)Nc1ccc(OCCCN(C)C)c(NC(=O)c2ccccc2C)c1`
// result 93

// query Tell us which Percent Inhibition value is on record for `Cc1cccc(C(=O)Nc2ccc(C(=O)NCCCN(C)C)c(NC(=O)c3cccc(C)c3)c2)c1`
// result 61

----------
# Test system: pylorus ligature ulcer
# assay_method_text: Protective action on pylorus ligature ulcer formation
# Format: in vivo, Sprague-Dawley strain male rats
# test_conditions: 200 mg/kg, in the duodenum; ulcer index
reported_property: Percent Inhibition (%)
Answer in %, number only, no unit symbol.

// query Tell us which Percent Inhibition value is on record for `Cc1cccc(C(=O)Nc2ccc(OCCCN(C)C)c(NC(=O)c3cccc(C)c3)c2)c1`
// result 75

// query Tell us which Percent Inhibition value is on record for `Cc1cccc(C(=O)Nc2ccc(C(=O)NCCCN(C)C)c(NC(=O)c3cccc(C)c3)c2)c1`
// result 38

// query Tell us which Percent Inhibition value is on record for `Cc1ccccc1C(=O)Nc1ccc(C(=O)NCCCN(C)C)c(NC(=O)c2ccccc2C)c1`
// result 65

// query Tell us which Percent Inhibition value is on record for `Cc1ccccc1C(=O)Nc1ccc(OCCCN(C)C)c(NC(=O)c2ccccc2C)c1`
// result 100
